study system: His tagged ERK2 (Homo sapiens, UniProt P28482)
Sequence (P28482 whole entry): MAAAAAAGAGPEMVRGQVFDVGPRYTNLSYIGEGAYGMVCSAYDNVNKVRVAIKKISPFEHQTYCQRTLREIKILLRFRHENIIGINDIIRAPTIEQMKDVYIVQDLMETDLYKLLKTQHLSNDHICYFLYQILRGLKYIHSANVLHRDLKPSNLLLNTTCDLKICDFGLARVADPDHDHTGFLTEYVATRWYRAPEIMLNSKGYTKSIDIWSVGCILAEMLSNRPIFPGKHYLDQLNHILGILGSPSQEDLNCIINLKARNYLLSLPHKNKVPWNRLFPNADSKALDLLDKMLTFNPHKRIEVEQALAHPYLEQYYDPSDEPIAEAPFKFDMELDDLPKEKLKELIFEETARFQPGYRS
test name: Extracellular signal Regulated Kinase 2 inhibition assay (ERK2), radioactive filtermat format
Type: biochemical
conditions: 10 μM compound
Description: The ERK2 kinase activity assay utilizes a radioactivity-based format in a 96-well PCR plate with radioactive readout. […] The bag containing the filtermat and the melted Meltilex was then placed into a filter cassette and counted using the Microbeta Jet Scintillation and Luminescence Counter PE-Wallac 1450.
Classes are defined on % Inhibition ERK2 with ranges one = under 40%, two = from 40% up to 60%, three = 60% and over

molecule | assigned label
O=C1NC(=O)c2c1c1c3ccccc3n3c1c1c2c2ccccc2n1C1CC3CC1N1CCCCC1 (centres unmarked) [Compound 29] | two
NC1(C(=O)NCCO)CC2CC1n1c3ccccc3c3c4c(c5c6ccccc6n2c5c31)C(=O)N(CCO)C4=O (centres unmarked) [Compound 37] | one
COc1ccc(CN2C(=O)c3c(c4c5ccccc5n5c4c4c3c3ccccc3n4C3CC(N(C)C)C5C3)C2=O)cc1 (centres unmarked) [Compound 31] | two
COc1ccc(CN2C(=O)c3c(c4c5ccccc5n5c4c4c3c3ccccc3n4C3CC5C(N)(C(=O)O)C3)C2=O)cc1 (centres unmarked) [Compound 36] | three
CCNC(=O)C1(N)CC2CC1n1c3ccccc3c3c4c(c5c6ccccc6n2c5c31)C(=O)NC4=O (centres unmarked) [Compound 41] | three
COc1ccc(CN2C(=O)c3c(c4c5ccccc5n5c4c4c3c3ccccc3n4C3CC(N4CCCCC4)C5C3)C2=O)cc1 (centres unmarked) [Compound 24] | one
CCCCNC1CC2CC1n1c3ccccc3c3c4c(c5c6ccccc6n2c5c31)C(=O)N(Cc1ccc(OC)cc1)C4=O (centres unmarked) [Compound 30] | two
COc1ccc(CN2C(=O)c3c(c4c5ccccc5n5c4c4c3c3ccccc3n4C3CC(NCCO)C5C3)C2=O)cc1 (centres unmarked) [Compound 25] | one
CNC1(C#N)CC2CC1n1c3ccccc3c3c4c(c5c6ccccc6n2c5c31)C(=O)N(Cc1ccc(OC)cc1)C4=O (centres unmarked) [Compound 27] | three
O=C1NC(=O)c2c1c1c3ccccc3n3c1c1c2c2ccccc2n1C1CC3CC1NCc1ccccc1 (centres unmarked) [Compound 23] | two
N#CC1(NC(=O)C(F)(F)F)CC2CC1n1c3ccccc3c3c4c(c5c6ccccc6n2c5c31)C(=O)NC4=O (centres unmarked) [Compound 32] | two

* * *

study system: UniProt P28482
test name: Extracellular signal Regulated Kinase 2 inhibition assay (ERK2), radioactive filtermat format
Assay type: biochemical
conditions: 10 μM compound
Answer False if inhibition at 10 µM is under 90%, and True if it is 90% or more.

compound | study system | assigned label
CCOC(=O)[C@]1(N)CC2CC1n1c3ccccc3c3c4c(c5c6ccccc6n2c5c31)C(=O)N(Cc1ccc(OC)cc1)C4=O (stereo partly drawn) | UniProt P28482 | False
CN[C@H]1CC2CC1n1c3ccccc3c3c4c(c5c6ccccc6n2c5c31)C(=O)NC4=O (mixture of isomers) | UniProt P28482 | False
N[C@@]1(C(=O)NCCO)CC2CC1n1c3ccccc3c3c4c(c5c6ccccc6n2c5c31)C(=O)NC4=O (mixture of isomers) | UniProt P28482 | True
CNC(=O)[C@]1(N)CC2CC1n1c3ccccc3c3c4c(c5c6ccccc6n2c5c31)C(=O)NC4=O (mixture of isomers) | UniProt P28482 | True
COc1ccc(CN2C(=O)c3c(c4c5ccccc5n5c4c4c3c3ccccc3n4C3CC5[C@]4(C3)NC(=O)N(C)C4=O)C2=O)cc1 (mixture of isomers) | UniProt P28482 | False
[N-]=[N+]=NC1C2CC([C@H]1O)n1c3ccccc3c3c4c(c5c6ccccc6n2c5c31)C(=O)NC4=O (mixture of isomers) | UniProt P28482 | True

* * *

study system: His tagged ERK2 (Homo sapiens, UniProt P28482)
test name: Extracellular signal Regulated Kinase 2 inhibition assay (ERK2), radioactive filtermat format
Format: biochemical
conditions: 10 μM compound
Answer n if inhibition at 10 µM is under 50%, and y if it is 50% or more.

molecule | assigned label
N[C@@H]1C2CC([C@H]1O)n1c3ccccc3c3c4c(c5c6ccccc6n2c5c31)C(=O)NC4=O (mixture of isomers) [Compound 16] | y
COC(=O)c1cn([C@@H]2C3CC([C@H]2O)n2c4ccccc4c4c5c(c6c7ccccc7n3c6c42)C(=O)NC5=O)nn1 (mixture of isomers) [Compound 17] | n
NC(=O)[C@]1(N)C[C@@H]2CC1n1c3ccc(O)cc3c3c4c(c5c6cc(O)ccc6n2c5c31)C(=O)NC4=O (mixture of isomers) [Compound 12] | y
COc1ccc(CN2C(=O)c3c(c4c5ccccc5n5c4c4c3c3ccccc3n4C3CC5[C@]4(C3)NC(=O)NC4=O)C2=O)cc1 (mixture of isomers) [Compound 13] | n

* * *

study system: PKA (catalytic subunit, bovine heart) (Bos taurus)
Construct: PKA (catalytic subunit, bovine heart, Calbiochem 539486); purchased Calbiochem 539486; host or cells: bovine heart (tissue-derived)
test name: Protein Kinase A inhibition assay (PKA)
Type: biochemical
conditions: 10 μM compound
# key: entry, value: inhibition at 10 µM
measurement type: inhibition at 10 µM (%)

compound | study system | relation sign | result number
NC(=O)[C@]1(N)C[C@@H]2CC1n1c3ccc(O)cc3c3c4c(c5c6cc(O)ccc6n2c5c31)C(=O)NC4=O (mixture of isomers) [Compound 12] | PKA (catalytic subunit, bovine heart) (Bos taurus) | = | 99.9
N[C@@]1(C(=O)O)CC2CC1n1c3ccccc3c3c4c(c5c6ccccc6n2c5c31)C(=O)NC4=O (stereo partly shown) [Compound 7] | PKA (catalytic subunit, bovine heart) (Bos taurus) | = | 62.5
CCOC(=O)[C@]1(N)CC2CC1n1c3ccccc3c3c4c(c5c6ccccc6n2c5c31)C(=O)NC4=O (stereo partly shown) [Compound 6] | PKA (catalytic subunit, bovine heart) (Bos taurus) | = | 59.4
CNC(=O)[C@]1(N)CC2CC1n1c3ccccc3c3c4c(c5c6ccccc6n2c5c31)C(=O)NC4=O (mixture of isomers) [Compound 10] | PKA (catalytic subunit, bovine heart) (Bos taurus) | = | 95.3
COc1ccc(CN2C(=O)c3c(c4c5ccccc5n5c4c4c3c3ccccc3n4C3CC5[C@](N)(C#N)C3)C2=O)cc1 (stereo partly shown) [Compound 28] | PKA (catalytic subunit, bovine heart) (Bos taurus) | < | 10
O=C1NC(=O)c2c1c1c3ccccc3n3c1c1c2c2ccccc2n1C1CC3C[C@@H]1N1CCOCC1 (mixture of isomers) [Compound 3] | PKA (catalytic subunit, bovine heart) (Bos taurus) | = | 26.1
COc1ccc(CN2C(=O)c3c(c4c5ccccc5n5c4c4c3c3ccccc3n4C3CC5[C@]4(C3)NC(=O)NC4=O)C2=O)cc1 (mixture of isomers) [Compound 13] | PKA (catalytic subunit, bovine heart) (Bos taurus) | = | 13.2

* * *

study system: PKA (catalytic subunit, bovine heart) (Bos taurus)
Construct: PKA (catalytic subunit, bovine heart, Calbiochem 539486); purchased Calbiochem 539486; host or cells: bovine heart (tissue-derived)
test name: Protein Kinase A inhibition assay (PKA)
Format: biochemical
conditions: 10 μM compound
From the text: The ERK2 kinase activity assay utilizes a radioactivity-based format in a 96-well PCR plate with radioactive readout. […] The bag containing the filtermat and the melted Meltilex was then placed into a filter cassette and counted using the Microbeta Jet Scintillation and Luminescence Counter PE-Wallac 1450. The PKA kinase activity assay utilizes a radioactivity-based format in a 96-well PCR plate with radioactive readout. […]
measurement type: % Inhibition PKA (%)

compound | readout unit | result number
CNC1(C#N)CC2CC1n1c3ccccc3c3c4c(c5c6ccccc6n2c5c31)C(=O)N(Cc1ccc(OC)cc1)C4=O (stereo not shown) | % | 30.19
NC1(C(=O)NCCO)CC2CC1n1c3ccccc3c3c4c(c5c6ccccc6n2c5c31)C(=O)N(CCO)C4=O (stereo not shown) | % | 19.81

* * *

study system: PKA (catalytic subunit, bovine heart) (Bos taurus)
Construct: PKA (catalytic subunit, bovine heart, Calbiochem 539486); purchased Calbiochem 539486; host or cells: bovine heart (tissue-derived)
test name: Protein Kinase A inhibition assay (PKA)
Assay type: biochemical
conditions: 10 μM compound
Answer not fulfilled if % Inhibition PKA is under 20%, and fulfilled if it is 20% or more.

molecule | assigned label
CCNC(=O)C1(N)CC2CC1n1c3ccccc3c3c4c(c5c6ccccc6n2c5c31)C(=O)NC4=O (stereo not shown) | fulfilled
COc1ccc(CN2C(=O)c3c(c4c5ccccc5n5c4c4c3c3ccccc3n4C3CC5C(N)(C(=O)O)C3)C2=O)cc1 (stereo not shown) | fulfilled
N#CC1(NC(=O)C(F)(F)F)CC2CC1n1c3ccccc3c3c4c(c5c6ccccc6n2c5c31)C(=O)NC4=O (stereo not shown) | fulfilled
O=C1NC(=O)c2c1c1c3ccccc3n3c1c1c2c2ccccc2n1C1CC3CC1N1CCCCC1 (stereo not shown) | not fulfilled
COc1ccc(CN2C(=O)c3c(c4c5ccccc5n5c4c4c3c3ccccc3n4C3CC(N4CCCCC4)C5C3)C2=O)cc1 (stereo not shown) | not fulfilled
O=C1NC(=O)c2c1c1c3ccccc3n3c1c1c2c2ccccc2n1C1CC3CC1NCc1ccccc1 (stereo not shown) | fulfilled
